The origin of these recorded values is ChEMBL document CHEMBL3137667.

# Run parameters: human
Value kind: Hepatotoxicity (cirrhosis)
Give the value as a plain number.

Provide measured Hepatotoxicity (cirrhosis) value, entry: C#C[C@]1(O)CC[C@H]2[C@@H]3CCC4=CC(=O)CCC4=C3C=C[C@@]21CC
0

Tell me its Hepatotoxicity (cirrhosis) given C=CCNc1nc(NCC=C)nc(N2CCN(C(c3ccc(F)cc3)c3ccc(F)cc3)CC2)n1 as the entry.
0

// fetch Hepatotoxicity (cirrhosis) given entry Cn1c(=O)c2[nH]cnc2n(C)c1=O.O
0

Return the recorded Hepatotoxicity (cirrhosis) value; entry: CC(=O)O[C@@]12CO[C@@H]1C[C@H](O)[C@@]1(C)C(=O)[C@H](O)C3=C(C)[C@@H](OC(=O)[C@H](O)[C@@H](NC(=O)OC(C)(C)C)c4ccccc4)C[C@@](O)([C@@H](OC(=O)c4ccccc4)[C@H]21)C3(C)C.O.O.O
0

# return recorded Hepatotoxicity (cirrhosis) for entry O=CN(O)CCCP(=O)(O)O
0

* * *

Hi there, I'd appreciate the recorded Hepatotoxicity (moderate) for every entry that follows.
# Protocol text: Highest frequency of moderate liver toxicity observed during clinical trials, expressed as a percentage. [column '% BIOL' in source]
# Run parameters: human
Number first, unit second.

Identify measured Hepatotoxicity (moderate) associated with CC(C(=O)O)c1ccc(-c2ccccc2)c(F)c1 (stereo unspecified)
8.1%

Retrieve Hepatotoxicity (moderate) measured for CO[C@@]1(NC(=O)C2SC(=C(C(N)=O)C(=O)O)S2)C(=O)N2C(C(=O)O)=C(CSc3nnnn3C)CS[C@@H]21 (stereo partly specified) and print it.
37.5%

Consider the compound O=C(O)c1cc(=O)c2c(OCC(O)COc3cccc4oc(C(=O)O)cc(=O)c34)cccc2o1 . State its measured Hepatotoxicity (moderate).
16.7%

Supply reported Hepatotoxicity (moderate) belonging to this compound: CNNCc1ccc(C(=O)NC(C)C)cc1
0%

Note down Hepatotoxicity (moderate) recorded for COc1cc(NCc2ccc3nc(N)nc(N)c3c2C)cc(OC)c1OC [TRIMETREXATE]
25%

Provide Hepatotoxicity (moderate) value for the following compound: CN1CCN(C2=Nc3ccccc3Oc3ccc(Cl)cc32)CC1
0%

Return value of Hepatotoxicity (moderate) for input CCOC(=O)Nc1ccc(NCc2ccc(F)cc2)nc1N , no commentary.
10%

Give Hepatotoxicity (moderate) for O=C(c1ccc(OCCN2CCCCC2)cc1)c1c(-c2ccc(O)cc2)sc2cc(O)ccc12
16.7%

# return recorded Hepatotoxicity (moderate) for entry CS(=O)(=O)c1ccc([C@@H](O)[C@@H](CO)NC(=O)C(Cl)Cl)cc1
0%

Tell us which Hepatotoxicity (moderate) value is on record for CC1=C(C(=O)O)N2C(=O)[C@@H](NC(=O)[C@H](N)c3ccccc3)[C@H]2SC1 [CEPHALEXIN ANHYDROUS]
4.8%

Identify measured Hepatotoxicity (moderate) corresponding to Nc1nc(Cl)nc2c1ncn2[C@H]1C[C@H](O)[C@@H](CO)O1
13%

// fetch Hepatotoxicity (moderate) given entry CC(C(=O)Nc1cc(-c2ccccc2)nn1-c1ccccc1)N(C)C (stereo unspecified)
0%

Provide Hepatotoxicity (moderate) value for the following compound: CO[C@H]1[C@@H](O)[C@H](N)[C@@H](O[C@H]2O[C@H]([C@H](C)N)CC[C@H]2N)[C@H](O)[C@@H]1N(C)C(=O)CN
7.3%

Tell us which Hepatotoxicity (moderate) value is on record for CCC(C)n1ncn(-c2ccc(N3CCN(c4ccc(OC[C@H]5CO[C@](Cn6cncn6)(c6ccc(F)cc6F)O5)cc4)CC3)cc2)c1=O (stereo partly specified)
0%

In one line, give reported Hepatotoxicity (moderate) of the entry Oc1c(Cl)c(Cl)c(Cl)c(Cl)c1Cl .
0%

Give the reported value of Hepatotoxicity (moderate) for this record: CC(=O)c1ccc(S(=O)(=O)NC(=O)NC2CCCCC2)cc1 [ACETOHEXAMIDE]
0%

Look up and report measured Hepatotoxicity (moderate) for this entry: CCCc1c2oc(C(=O)O)cc(=O)c2cc2c(=O)cc(C(=O)O)n(CC)c12
3.3%

Hello, please tell me recorded Hepatotoxicity (moderate) for this one: FC(F)OC(F)(F)C(F)Cl (stereo unspecified)
58%

Tell us which Hepatotoxicity (moderate) value is on record for O[C@H]1[C@H]2[C@H](O)CCCN2C[C@H]1O
52.6%

Supply reported Hepatotoxicity (moderate) belonging to this compound: COc1cc2nc(N(C)CCCNC(=O)C3CCCO3)nc(N)c2cc1OC (stereo unspecified)
0%

Return Hepatotoxicity (moderate) (reported value) for this compound: C[C@]12CC[C@@H]3c4ccc(OS(=O)(=O)O)cc4CC[C@H]3[C@@H]1CCC2=O
22.9%

State its Hepatotoxicity (moderate) for this compound: Cc1cc2c(s1)Nc1ccccc1N=C2N1CCN(C)CC1
30%

Fill in reported Hepatotoxicity (moderate) for this entry: CO[C@H](C(=O)[C@@H](O)[C@@H](C)O)[C@@H]1Cc2cc3cc(O[C@H]4C[C@@H](O[C@H]5C[C@@H](O)[C@H](O)[C@@H](C)O5)[C@H](O)[C@@H](C)O4)c(C)c(O)c3c(O)c2C(=O)[C@H]1O[C@H]1C[C@@H](O[C@H]2C[C@@H](O[C@H]3C[C@](C)(O)[C@H](O)[C@@H](C)O3)[C@@H](O)[C@@H](C)O2)[C@H](O)[C@@H](C)O1
100%

Given the compound NS(=O)(=O)c1cc2c(cc1C(F)(F)F)NC(Cc1ccccc1)NS2(=O)=O (stereo unspecified) [BENDROFLUMETHIAZIDE] , write its reported Hepatotoxicity (moderate).
0%

Give Hepatotoxicity (moderate) for CNC(=O)C[C@@H](N)C(=O)N[C@@H](C(=O)N[C@@H]1C(=O)N2[C@@H]1SC(C)(C)[C@@H]2C(=O)O)c1ccc(O)cc1
40%

Answer with the recorded Hepatotoxicity (moderate) for the compound listed here: CC1(C)S[C@@H]2[C@H](NC(=O)[C@H](C(=O)O)c3ccsc3)C(=O)N2[C@H]1C(=O)O
5%

Provide measured Hepatotoxicity (moderate) value, entry: CCC[C@@H]1C[C@@H](C(=O)N[C@@H]([C@H]2O[C@H](SC)[C@H](O)[C@@H](O)[C@H]2O)[C@@H](C)O)N(C)C1
0%

Tell me measured Hepatotoxicity (moderate) for CC[C@]1(O)C[C@H]2CN(CCc3c([nH]c4ccccc34)[C@@](C(=O)OC)(c3cc4c(cc3OC)N(C=O)[C@H]3[C@@](O)(C(=O)OC)[C@H](OC(C)=O)[C@]5(CC)C=CCN6CC[C@]43[C@@H]65)C2)C1 please.
7.3%

Quote Hepatotoxicity (moderate) reported for C[C@@H]1C[C@H](C)CN(S(=O)(=O)c2ccc(Cl)c(C(=O)O)c2)C1 please.
0%

Specify reported Hepatotoxicity (moderate) for the compound shown: CC(NCCc1ccc(O)cc1)C(O)c1ccc(O)cc1 (stereo unspecified)
40%

Give a short answer stating reported Hepatotoxicity (moderate) for Cc1cc(=O)n(-c2ccccc2)n1C [ANTIPYRINE] .
0%

* * *

# Protocol text: Highest frequency of acute liver toxicity observed during clinical trials, expressed as a percentage. [column '% AIGUE' in source]
# Run parameters: human, Liver
Value kind: Hepatotoxicity (acute) (%)
# number only, unit % dropped from output

State its Hepatotoxicity (acute) for this compound: CCCN[C@H]1CCc2nc(N)sc2C1 [PRAMIPEXOLE]
0

Provide only the value of recorded Hepatotoxicity (acute) for COc1c2occc2cc2ccc(=O)oc12
0

Answer with the recorded Hepatotoxicity (acute) of Cc1noc(NS(=O)(=O)c2ccc(N)cc2)c1C only.
0

Supply measured Hepatotoxicity (acute) of O=C1NC(=O)C(c2ccccc2)(c2ccccc2)N1 in your reply.
2

Report Hepatotoxicity (acute) for CCN1CCN(C(=O)N[C@@H](C(=O)N[C@@H]2C(=O)N3C(C(=O)O)=C(CSc4nnnn4C)CS[C@H]23)c2ccc(O)cc2)C(=O)C1=O
0

Please look at this compound and report its Hepatotoxicity (acute): CC(=O)[C@@]1(O)CC[C@H]2[C@@H]3C[C@H](C)C4=CC(=O)CC[C@]4(C)[C@H]3CC[C@@]21C
3.3

// fetch Hepatotoxicity (acute) given entry Nc1ncn([C@@H]2O[C@H](CO)[C@@H](O)[C@H]2O)c(=O)n1
0

Input CN(C)CCCn1c2c(c3ccccc31)CCCCCC2 , output reported Hepatotoxicity (acute).
0

Name the recorded Hepatotoxicity (acute) of the item Cc1c(F)c(N2CCNC(C)C2)cc2c1c(=O)c(C(=O)O)cn2C1CC1 (centres undefined) in your answer.
0

* * *

# Run parameters: human
*1 amine or outer side, *2 acyl side, *3 side chain or, on linkers, in order; H or OH if unused. Where a SMILES comes first, the peptide text is derived from it. Bridges are numbered along the chain shown (N, C = ends). [ ]: non-standard residue; d: D form. The star is where a group is joined. X1 = O=C1C[C@@H](C(=O)[*:2])N([*:1])C[C@H]1CS[C@@H]1CN2CCC1CC2; NMePhe(4-NMe2) = CN[C@@H](Cc1ccc(N(C)C)cc1)C(=O)O; Picolinoyl(3-OH) = O=C(c1ncccc1O)*; Phg = N[C@H](C(=O)O)c1ccccc1; dAbu = CC[C@@H](N)C(=O)O
Value kind: Hepatotoxicity (cytolytic)
Form field (numeric): enter value without unit.

Identify measured Hepatotoxicity (cytolytic) associated with O=c1[nH]c(=O)n([C@H]2C[C@H](O)[C@@H](CO)O2)cc1F
2

Give the reported Hepatotoxicity (cytolytic) for this compound. CCC(=O)NS(=O)(=O)c1ccc(-c2c(-c3ccccc3)noc2C)cc1
0

Dear colleague, please send me the reported Hepatotoxicity (cytolytic) for CCOc1nc2cccc(C(=O)O)c2n1Cc1ccc(-c2ccccc2-c2nnn[nH]2)cc1 when you can.
3

# return recorded Hepatotoxicity (cytolytic) for entry CC(=O)Nc1cc([As](=O)(O)O)ccc1O
0

Item CC(CN(C)C)CN1c2ccccc2Sc2ccc(C#N)cc21 (stereo not drawn) : provide Hepatotoxicity (cytolytic)
1

Provide measured Hepatotoxicity (cytolytic) value, entry: CCCc1nn(C)c2c(=O)[nH]c(-c3cc(S(=O)(=O)N4CCN(C)CC4)ccc3OCC)nc12
2

Determine from records and report Hepatotoxicity (cytolytic) for CNC(=C[N+](=O)[O-])NCCSCc1csc(CN(C)C)n1
2

Respond only with Hepatotoxicity (cytolytic) recorded for CN(C)c1ccc(O)c2c1C[C@H]1C[C@H]3[C@H](N(C)C)C(O)=C(C(N)=O)C(=O)[C@@]3(O)C(O)=C1C2=O
36

Output measured Hepatotoxicity (cytolytic) for this item: CCN(CC)CCS(=O)(=O)[C@@H]1CCN2C(=O)c3coc(n3)CC(=O)C[C@H](O)/C=C(C)/C=C/CNC(=O)/C=C/[C@@H](C)[C@@H](C(C)C)OC(=O)[C@@H]12.CC[C@H]1NC(=O)[C@@H](NC(=O)c2ncccc2O)[C@@H](C)OC(=O)[C@H](c2ccccc2)NC(=O)[C@@H]2CC(=O)[C@H](CS[C@@H]3CN4CCC3CC4)CN2C(=O)[C@H](Cc2ccc(N(C)C)cc2)N(C)C(=O)[C@@H]2CCCN2C1=O [QUINUPRISTIN/DALFOPRISTIN] ({Picolinoyl(3-OH)}-T[dAbu]P[NMePhe(4-NMe2)][X1][Phg]; ester 1-C)
0

Let me know recorded Hepatotoxicity (cytolytic) for CN(C)CCCN1c2ccccc2CCc2ccc(Cl)cc21 , thanks.
3

Assign Hepatotoxicity (cytolytic) to the following record: O=C(O)c1ccccc1C(=O)Nc1ccc(S(=O)(=O)Nc2nccs2)cc1
0

Provide one value: measured Hepatotoxicity (cytolytic) of CC(=O)O[C@H]1C[C@@]2(C)[C@@H](C[C@@H](O)[C@H]3[C@@]4(C)CC[C@@H](O)[C@@H](C)[C@@H]4CC[C@@]32C)/C1=C(\CCC=C(C)C)C(=O)O
0

Let me know recorded Hepatotoxicity (cytolytic) for CCOC(=O)/C=C(C)/C=C/C=C(C)/C=C/c1c(C)cc(OC)c(C)c1C [ETRETINATE] , thanks.
12
